B1: tRNA (parent)
chain: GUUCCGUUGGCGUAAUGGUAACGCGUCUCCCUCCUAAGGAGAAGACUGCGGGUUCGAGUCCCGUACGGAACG

Variants of: B1
experiment: yeast fitness relative to wild type (ratio to wild type); higher = fitter; tRNA-Arg(CCU), competitive growth, 37 C, YPD
Fewer inactive variants are shown than the library holds.

[
  {
    "chain_sequence": "GUUCCGUUGGCGUUAUAGUAACGCGUCUGCCUCUAAACGAGAAGACUGCGGGUUGGAGUCCCGUACGGGCCG",
    "yeast fitness": 0.511
  },
  {
    "chain_sequence": "GUUCGGUUGGCGUAUUGGUAACGCGUCUCCCUCCUAAGGAGAAGACUGCGGGUUCGAGUCCCGUACGGAACG",
    "yeast fitness": 0.747
  },
  {
    "chain_sequence": "GUUCCGUAGGCGUAAUGGUAACGUGUCUCCCUCCUAAGGUGCAGUCUGUGGGUUCGAGUCCCGUACGGAACG",
    "yeast fitness": "≤ 0.5"
  },
  {
    "chain_sequence": "GUUCCGUUGGCGUAAUGGUAACGCGUUUCCUUCCUAAGGAGAAGACUGCGGGUUCGAGUGCCGUACGGAACG",
    "yeast fitness": 0.581
  },
  {
    "chain_sequence": "GUUCUGUUGGCGUAAUGGUAACGCGUCUCCCUCCCAAGGAGAAGACUGCGGGUUCGAGUCCCGUACGGUACG",
    "yeast fitness": 0.536
  },
  {
    "chain_sequence": "GUUCCGUUGGCGUAAUGGUAACGCGCCUCCCCCCUAAGGAGAAGACUGCGGGUUCGAGUCCCGUACGGAGCG",
    "yeast fitness": 0.659
  },
  {
    "chain_sequence": "GUUCCGUUGGCGUAAUGGUAACGUGUCUGCCUCCUAAGGAGAAGACUGCGGGUUCGAGUCCGGUACGGAACG",
    "yeast fitness": "≤ 0.5"
  },
  {
    "chain_sequence": "GUUUCGUUGGCGUAGUGGUAACCCGUCUCCCUCCUAUGGAGAAGACUGUGGGUUCGAGUCCCGUUCGGAACG",
    "yeast fitness": 0.525
  },
  {
    "chain_sequence": "GUUCCGUUGGCAUAAUGGUAACGCGUCUCCUUCCUAAGGAGAAGACUGCGGAUUCCAGUCCCGUACGGAACG",
    "yeast fitness": 0.569
  },
  {
    "chain_sequence": "GUUCCGUUGGGGUAAUGGUAACGCGUCUCCCUCCUAAGGAGAACACUGCGGGUUCGAGUCCCGUACGGAACG",
    "yeast fitness": 0.639
  },
  {
    "chain_sequence": "GCUCCGUUGGCGUAAUGGUAACGCCUCUCCCUCCUUAAGAGAAGACUGCGGGUUCGAGUCCCGUACGGAACG",
    "yeast fitness": "≤ 0.5"
  }
]
